# reported TGI; entries follow
tested on: DU-145 prostate; test: NCI tumour cell line growth inhibition, 48 h
Endpoint Label: TGI (µM)

> print(dat)
                                    molecule  experimental.system  unit.abbreviation  prefix.operator  readout.value
 1               CON(C(=O)OC(C)(C)C)c1ccccc1      DU-145 prostate                 µM                >            100
 2  CCC1OC(=O)CC(O)C(C)C(OC2OC(C)CC(N(C)C)C2O)C(CC=O)CC(C)C(=O)/C=C/C2(C)OC2C1C (stereo unspecified)      DU-145 prostate                 µM                =           61.2
 3  Cc1cc2nc3c4cc([N+](=O)[O-])ccc4n(CCN(C)C)c3nc2cc1C      DU-145 prostate                 µM                >           27.8
 4  COC(=O)[C@@H](NC(=O)c1ccc(CNC(=O)/C(C)=C/c2ccccc2)cc1)C(C)C      DU-145 prostate                 µM                >            100
 5  CCOC(=O)Nc1cc(-c2ccc(C)c(NS(C)(=O)=O)c2)nn2c(C)nnc12      DU-145 prostate                 µM                >            100
 6                    CC(C)(CO)NC(=O)c1cccs1      DU-145 prostate                 µM                >            100
 7  c1ccc(Sc2nc(Sc3ccccc3)nc(Sc3ccccc3)n2)cc1      DU-145 prostate                 µM                =           47.1
 8  COc1c(OC)c(OC)c(-c2cc(=O)c3c(OC)c(OC)c(OC)c(OC)c3o2)c(OC)c1OC      DU-145 prostate                 µM                >            100
 9     CCc1n[nH]c(=O)n1N=C(c1ccccc1)c1ccccc1      DU-145 prostate                 µM                >            100
10       O=c1cc(NNc2cccc(F)c2)[nH]c(=S)[nH]1      DU-145 prostate                 µM                >            100
11  O=C1Nc2c(ccc(Cl)c2Cl)/C1=C\c1cc(C(F)(F)F)cc(C(F)(F)F)c1      DU-145 prostate                 µM                =           13.5
12  C=C(C)C1CCC2(C(=O)O)CCC3(C)C(CCC4C5(C)CCC(O)C(C)(C)C5CCC43C)C12 (stereo unspecified)      DU-145 prostate                 µM                =           27.1
13  COC(=O)C1CCCN1C(=O)OC(C)(C)C (stereo unspecified)      DU-145 prostate                 µM                >            100
14  O=C(NCCC1CN(S(=O)(=O)C(F)(F)F)c2ccccc21)OCc1ccccc1 (stereo unspecified)      DU-145 prostate                 µM                >            100
15  CS(=O)(=O)c1ccc(-c2cnc(NCc3ccco3)n3cnnc23)cc1      DU-145 prostate                 µM                >            100
16  CNC(=O)c1cc(Oc2ccc3nc(NC(=O)Nc4cc(C(F)(F)F)cc(C(F)(F)F)c4)sc3c2)ccn1      DU-145 prostate                 µM                =           2.98
17  CN(C)CCCN=c1c2ccccc2n(C)c2[nH]c(=O)n(C)c(=O)c12      DU-145 prostate                 µM                >             79
18  N#CC(C#N)C1CN2CCC1CC2 (stereo unspecified)      DU-145 prostate                 µM                >            100
19  Cc1nc2cc(Nc3nc(Nc4ccc(F)cc4)nc(N4CCCC4)n3)ccc2n1Cc1ccccc1      DU-145 prostate                 µM                =           3.35
20  COC1=CC(c2ccc[nH]2)=N/C1=C\c1[nH]c(C)c(C)c1CCC(=O)OCc1ccccc1      DU-145 prostate                 µM                =           6.82
21  CCCCCCn1c2c(c3c(O)cccc31)C(=O)c1ccccc1-2      DU-145 prostate                 µM                =           29.7
22       CC/C(=C(/CC)c1ccc(O)cc1)c1ccc(O)cc1      DU-145 prostate                 µM                =           22.4
23       O=C1[C@H](O)[C@@H]2CCC[C@@]23CCCN13      DU-145 prostate                 µM                >            100
24            COc1cccc(/C=N/NC(=O)CN(C)C)c1O      DU-145 prostate                 µM                >            100
25  O=C(c1cccnc1)N1N=C(c2ccc3c(c2)OCO3)CC1(O)c1cc(F)c(Cl)cc1Cl (stereo unspecified)      DU-145 prostate                 µM                =           59.8
26  COc1ccccc1[C@@H]1CCC2CC[C@@H](c3ccccc3OC)[N+]21Cc1ccccc1 (stereo partly specified)      DU-145 prostate                 µM                =           13.7
27  Cc1cc(Cl)ccc1Nc1nc2c(s1)C(=O)c1ccccc1C2=O      DU-145 prostate                 µM                =           3.04
28  O=C(NC(Cc1ccccc1)C(=O)CCl)OCc1ccccc1 (stereo unspecified)      DU-145 prostate                 µM                =           22.9
29        O=[N+]([O-])c1cccc([I+]c2ccccc2)c1      DU-145 prostate                 µM                =           24.3
30  COc1cc(/C=C2\CC3C4CCC5=CC(=O)CC[C@]5(C)C4CC[C@]3(C)C2=O)ccc1OCCN1CCCCC1 (stereo partly specified)      DU-145 prostate                 µM                =           8.33
31  CN1c2ccccc2S(=O)(=O)n2c(COc3ccccc3)nnc21      DU-145 prostate                 µM                >            100
32  COc1ccc(N2C(=O)C(=O)C3(CCCCC3)C2=O)c(OC)c1OC      DU-145 prostate                 µM                >            100
33                CCN(CCN(CC)C(=O)NC)C(=O)NC      DU-145 prostate                 µM                >            100
34  CCN(CC)CCNC(=O)C(Cl)=C1C(Cl)=C(Cl)C(Cl)=C1Cl      DU-145 prostate                 µM                =           10.8
35  Oc1[nH]c2ccccc2c1/C=c1/ccc2c(c1)N=C(c1cc(F)cc(F)c1)N=2      DU-145 prostate                 µM                =           22.2
36              Cc1ccc(S(=O)(=O)NCCCSCCO)cc1      DU-145 prostate                 µM                >            100
37         Cn1c(=O)oc2cc(C(=S)N3CCCCC3)ccc21      DU-145 prostate                 µM                >            100
38         O=c1[nH]c(-c2ccc(Cl)cc2)cc2ccsc12      DU-145 prostate                 µM                =           6.68
39  CSc1nc(SC)c2c(C)cn(C3OC(C)C(O)C(O)C3O)c2n1 (stereo unspecified)      DU-145 prostate                 µM                >            100
40  CC(=O)CC12NC(=O)N(C)N=C1N(C)C(=O)N(C)C2=O (stereo unspecified)      DU-145 prostate                 µM                >            100
41  COC(=O)C1=C(C)NC2=C(C(=O)c3ccccc32)C1c1cn[nH]c1-c1ccccc1 (stereo unspecified)      DU-145 prostate                 µM                >            100

Source: PubChem BioAssay (NCI)
